The measurements presented in this section are drawn from ChEMBL document CHEMBL4229524.

Consider the following compounds; for each one, report its pIC50.
- Tested on: MDA-MB-435
- Method Notes: Antiproliferative activity against human MDA-MB-435 cells after 72 hrs by sulforhodamine B assay
- Assay type: functional, cell-based
- Test Parameters: MDA-MB-435, 72 h
Bear in mind: pIC50 is minus log10 of a mol/L concentration; give just that figure.

So for CNc1ccc(N(C)c2ncnc3occ(C)c23)cc1 , the logged pIC50 turned out to be 7.13

So for Cc1coc2ncnc(N(C)c3ccc(N(C)C)cc3)c12 , the logged pIC50 turned out to be 7.36

* * *

What follows is a record of IC50 for UniProt:P00533.
Sequence (P00533 whole entry): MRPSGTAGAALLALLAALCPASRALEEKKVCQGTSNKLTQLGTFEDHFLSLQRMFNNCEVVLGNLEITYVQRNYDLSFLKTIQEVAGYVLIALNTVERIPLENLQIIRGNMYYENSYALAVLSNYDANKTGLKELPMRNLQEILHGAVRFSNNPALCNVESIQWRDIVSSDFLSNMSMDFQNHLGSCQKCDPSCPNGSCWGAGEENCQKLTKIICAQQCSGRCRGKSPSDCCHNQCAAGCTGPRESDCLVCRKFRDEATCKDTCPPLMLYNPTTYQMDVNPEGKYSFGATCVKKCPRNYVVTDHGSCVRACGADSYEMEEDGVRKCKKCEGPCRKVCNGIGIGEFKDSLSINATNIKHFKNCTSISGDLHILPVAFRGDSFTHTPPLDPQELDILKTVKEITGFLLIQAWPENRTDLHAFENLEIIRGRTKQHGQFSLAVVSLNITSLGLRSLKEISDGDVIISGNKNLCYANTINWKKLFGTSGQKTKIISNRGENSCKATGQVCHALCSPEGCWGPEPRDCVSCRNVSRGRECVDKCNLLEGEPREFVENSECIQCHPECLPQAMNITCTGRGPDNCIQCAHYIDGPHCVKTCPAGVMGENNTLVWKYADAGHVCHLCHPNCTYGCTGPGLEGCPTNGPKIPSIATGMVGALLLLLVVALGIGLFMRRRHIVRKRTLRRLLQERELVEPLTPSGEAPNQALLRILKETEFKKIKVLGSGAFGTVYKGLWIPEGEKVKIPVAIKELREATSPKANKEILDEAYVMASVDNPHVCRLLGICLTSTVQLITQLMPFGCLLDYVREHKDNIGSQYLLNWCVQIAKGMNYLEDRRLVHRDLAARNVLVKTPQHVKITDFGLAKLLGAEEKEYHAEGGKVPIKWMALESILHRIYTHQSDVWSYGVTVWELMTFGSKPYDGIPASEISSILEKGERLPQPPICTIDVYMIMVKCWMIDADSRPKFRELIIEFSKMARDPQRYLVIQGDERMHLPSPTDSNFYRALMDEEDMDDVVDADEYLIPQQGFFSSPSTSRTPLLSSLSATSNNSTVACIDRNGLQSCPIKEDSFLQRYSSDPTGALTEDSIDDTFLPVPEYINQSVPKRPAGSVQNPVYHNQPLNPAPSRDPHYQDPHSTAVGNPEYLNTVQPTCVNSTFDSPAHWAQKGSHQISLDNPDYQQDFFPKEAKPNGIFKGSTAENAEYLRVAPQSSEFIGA
The reply should be a number in nM, with the unit left off.

So for COc1ccc(N(C)c2ncnc3occ(C)c23)cc1 , the logged IC50 turned out to be 15.5

So for CCN(c1ccc(OC)cc1)c1ncnc2occ(C)c12 , the logged IC50 turned out to be 92.5

So for COc1ccc(N(c2ncnc3occ(C)c23)C(C)C)cc1 , the logged IC50 turned out to be 10.1

So for CCCN(c1ccc(OC)cc1)c1ncnc2occ(C)c12 , the logged IC50 turned out to be 7.1
